aptazyme ON/OFF ratio by entry:
B1: Pistol ribozyme (parent)
chain: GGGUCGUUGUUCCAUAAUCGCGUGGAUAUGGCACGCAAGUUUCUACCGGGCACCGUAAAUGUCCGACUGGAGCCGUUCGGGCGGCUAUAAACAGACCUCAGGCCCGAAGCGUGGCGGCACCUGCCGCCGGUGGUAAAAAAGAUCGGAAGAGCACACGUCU

- Variants of: B1
- Experiment Summary: aptazyme ON/OFF ratio, guanine; higher = stronger switching; co-transcriptional cleavage with and without guanine

// field: aptazyme ON/OFF ratio; key: U7A U8G C12A C13G ; value = 1.25
